tested on: WEE1; settings: Compound Concentration (nM):1000;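 also: KINOMEscan scanMAX binding as percent activity remaining versus control; lower means stronger binding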
measured_attribute: Percent Control (%)

compound="COC(=O)Nc1nc2ccc(Oc3ccc(NC(=O)Nc4cc(C(F)(F)F)ccc4F)cc3)cc2s1.Cl [GW693917A]" measured_attribute="Percent Control" value_reported=87
compound="COc1ccc2[nH]c3c4[nH]c5ccc(OC)cc5c4c4c(c3c2c1)C(=O)NC4=O [GW296115X]" measured_attribute="Percent Control" value_reported=53
compound="COc1cccc(-c2c[nH]c3c(N/N=C/c4ccncc4)ncnc23)c1 [GW814408X]" measured_attribute="Percent Control" value_reported=100
compound="NS(=O)(=O)c1ccc(Nc2ncc(-c3ccccc3)o2)cc1 [GW572399X]" measured_attribute="Percent Control" value_reported=100
compound="NS(=O)(=O)c1ccc(N/N=C2\\C(=O)Nc3ccc(Cl)cc32)cc1 [GW280670X]" measured_attribute="Percent Control" value_reported=100
compound="CC1=C(C(=O)Nc2ccc3[nH]ncc3c2)C(c2ccc3ccccc3c2)CC(=O)N1 (stereo not drawn) [GSK270822A]" measured_attribute="Percent Control" value_reported=93
compound="CN(C)c1cc2c(Nc3ccc4c(cnn4Cc4ccccc4)c3)ncnc2cn1 [GW282974X]" measured_attribute="Percent Control" value_reported=83
compound=COc1ccc2cc(-c3c(-c4ccncc4)nc(-c4ccc(S(C)(=O)=O)cc4C)n3C)ccc2c1 measured_attribute="Percent Control" value_reported=86
compound="COc1cc(/C=N/Nc2ncnc3[nH]ncc23)ccc1O [GW578748X]" measured_attribute="Percent Control" value_reported=100
compound="Cl.O=C(O[C@H]1CN[C@H](C#Cc2cc3ncnc(Nc4ccc5c(cnn5Cc5ccccc5)c4)c3s2)C1)N1CCOCC1 [GSK200398A]" measured_attribute="Percent Control" value_reported=89
compound="CN1CCN(C(=O)c2ccc(NC(=O)Nc3ccc(N(C)c4ccnc(Nc5ccc(CS(C)(=O)=O)cc5)n4)cc3)cc2)CC1.Cl [GW830263A]" measured_attribute="Percent Control" value_reported=100
compound="CN(C)CCNC(=O)Nc1ccc(N(C)c2ccnc(Nc3ccc(CS(C)(=O)=O)cc3)n2)cc1.Cl [GW830900A]" measured_attribute="Percent Control" value_reported=94
compound="CC(C)COC(=O)c1ccc2c(c1)/C(=C/Nc1ccc(S(N)(=O)=O)cc1)C(=O)N2 [GW416981X]" measured_attribute="Percent Control" value_reported=100
compound="NS(=O)(=O)c1ccc(N/N=C2\\C(=O)Nc3ccc(C(=O)NCc4ccncc4)cc32)cc1 [GW300657X]" measured_attribute="Percent Control" value_reported=93
compound="O=C1Nc2ccc(C(=O)c3ccco3)cc2C1=Cc1cc(Cl)c(O)c(Cl)c1 [GW406108X]" measured_attribute="Percent Control" value_reported=100
compound="COc1ccc2c(-c3ccnc(Nc4cccc(OC(F)(F)F)c4)n3)cnn2n1 [GW810372X]" measured_attribute="Percent Control" value_reported=100
compound="NS(=O)(=O)c1ccc(N/N=C2\\C(=O)Nc3ccc(C(=O)NCCc4c[nH]cn4)cc32)cc1 [GW300660X]" measured_attribute="Percent Control" value_reported=100
compound="Cl.c1ccc(Cc2nc3ccc(Nc4ncnc5ccccc45)cc3[nH]2)cc1 [GR269666A]" measured_attribute="Percent Control" value_reported=100
